experiment: Phase 1 study: plasma pharmacokinetics, non-compartmental analysis; format: in vivo, human (Japanese patients); details: human, plasma, oral, 160 mg, Vss/F, Arithmetic mean (SD), Multiple-dose administration; Cohort 2 160 mg BID (n = 6)
assayReadout: Vd/F
Be sure to follow the number with its unit.

The value of Vd/F measured for the molecule C[C@@H]1COCCN1c1cc(C2([S@](C)(=N)=O)CC2)nc(-c2cc[nH]c3nccc2-3)n1 [ceralasertib] turned out to be 35.3 L

----------
test: Phase 1 study: plasma pharmacokinetics, non-compartmental analysis; type: in vivo, human (Japanese patients); conditions: human, plasma, oral, 240 mg, Vz/F, Arithmetic mean (SD), Single-dose administration; Cohort 1 240 mg (n = 6)
assayReadout: Vd/F (L)
The figure you give is taken to be in L; do not add the unit.

The value of Vd/F measured for the compound C[C@@H]1COCCN1c1cc(C2([S@](C)(=N)=O)CC2)nc(-c2cc[nH]c3nccc2-3)n1 [ceralasertib] turned out to be 40.5

----------
assay: Phase 1 study: plasma pharmacokinetics, non-compartmental analysis; assay type: in vivo, human (Japanese patients); conditions: human, plasma, po, 160 mg, tmax, Median (range), Single-dose administration; Cohort 2 160 mg (n = 6)
assayReadout: Tmax
Be sure to follow the number with its unit.

The value of Tmax measured for the compound `C[C@@H]1COCCN1c1cc(C2([S@](C)(=N)=O)CC2)nc(-c2cc[nH]c3nccc2-3)n1` turned out to be 1.9 h

----------
assay: Phase 1 study: plasma pharmacokinetics, non-compartmental analysis; type: in vivo, human (Japanese patients); settings: human, plasma, po, 240 mg, tmax, Median (range), Single-dose administration; Cohort 1 240 mg (n = 6)
assayReadout: Tmax

The value of Tmax measured for the molecule `C[C@@H]1COCCN1c1cc(C2([S@](C)(=N)=O)CC2)nc(-c2cc[nH]c3nccc2-3)n1` turned out to be 2 h

----------
assay: Phase 1 study: plasma pharmacokinetics, non-compartmental analysis; type: in vivo, human (Japanese patients); details: human, plasma, oral, 240 mg, t1/2, Arithmetic mean (SD), Single-dose administration; Cohort 1 240 mg (n = 6)
assayReadout: half-life (h)
The figure you give is taken to be in h; do not add the unit.

The value of half-life measured for the compound `C[C@@H]1COCCN1c1cc(C2([S@](C)(=N)=O)CC2)nc(-c2cc[nH]c3nccc2-3)n1` turned out to be 12.2

----------
assay: Phase 1 study: plasma pharmacokinetics, non-compartmental analysis; type: in vivo, human (Japanese patients); settings: human, plasma, oral, 240 mg
assayReadout: Cmax (ng/mL)
The figure you give is taken to be in ng/mL; do not add the unit.

The value of Cmax measured for the compound `C[C@@H]1COCCN1c1cc(C2([S@](C)(=N)=O)CC2)nc(-c2cc[nH]c3nccc2-3)n1` turned out to be 7670

----------
test: Phase 1 study: plasma pharmacokinetics, non-compartmental analysis; type: in vivo, human (Japanese patients); conditions: human, plasma, oral, 240 mg, Vss/F, Arithmetic mean (SD), Multiple-dose administration; Cohort 1 240 mg BID (n = 6)
assayReadout: Vd/F

The value of Vd/F measured for the compound C[C@@H]1COCCN1c1cc(C2([S@](C)(=N)=O)CC2)nc(-c2cc[nH]c3nccc2-3)n1 [ceralasertib] turned out to be 33.8 L
